# test.name: self-splicing fitness, log relative to wild type (ln ratio); higher = more splicing; Tetrahymena group I intron in knt gene, E. coli kanamycin selection, DiMSum; sequences stand for … in CUCUCU…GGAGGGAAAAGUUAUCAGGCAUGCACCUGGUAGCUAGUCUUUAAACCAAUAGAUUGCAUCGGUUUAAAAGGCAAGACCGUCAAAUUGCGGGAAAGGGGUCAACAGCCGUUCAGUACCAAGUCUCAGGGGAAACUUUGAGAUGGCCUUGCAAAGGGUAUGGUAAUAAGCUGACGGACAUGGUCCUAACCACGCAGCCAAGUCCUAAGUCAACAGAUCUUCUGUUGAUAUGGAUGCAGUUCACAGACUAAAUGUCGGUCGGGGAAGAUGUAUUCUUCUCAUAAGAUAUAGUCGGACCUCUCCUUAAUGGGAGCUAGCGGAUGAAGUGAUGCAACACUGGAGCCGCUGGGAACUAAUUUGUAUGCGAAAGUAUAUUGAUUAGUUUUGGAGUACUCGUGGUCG;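 also: selection with 25 µg/mL kanamycin versus none on LB agar overnight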
# condition.details: 30 °C
Definition: the class of an entry is the range in bottom end: < -3; midrange: ≥ -3 and < -2; top end: ≥ -2 that contains its self-splicing fitness (ln).

| residue.string | cat |
| --- | --- |
| CAAUAGCAAUAUUACGACGU | midrange |
| AUCUAGCAAUAUUACGACAU | top end |
| CGGCAGCAAUAUUACGAGGU | bottom end |
| CCGCAGCAAUAUUACGCGGG | bottom end |
| GAUUAGCAAUAUUACGUACC | top end |
| CGCAAGCAAUAUUACGGACG | top end |
| AGAUAGCAAUAUUACGUAAU | top end |
| ACGGAGCAAUAUUACGUAUA | midrange |
| ACACAGCAAUAUUACGUUAG | bottom end |
| GAAUAGCAAUAUUACGCUCA | top end |
| GAGUAGCAAUAUUACGUACU | midrange |
| AUUCAGCAAUAUUACGGCAG | top end |
| GCCGAGCAAUAUUACGACGA | top end |

The reported numbers originate from the supplement of paper PMC7877785.
